# TEST PROTOCOL: Cmax in Sprague-Dawley rat at 3 mg/kg, po
# Format: ADME, organism-based
# Parameters: dose 3 mg/kg, route oral
# CONDITION NOTES: in vivo
QUANTITY: Cmax (µM)
Return type: number; implicit unit µM.

Per the records, this compound ( FC(F)(F)c1c(OC[C@H]2C[C@@H]2c2ccc(Cl)cc2)ccn2c(CC3CC3)nnc12 ) has Cmax equal to 4.1

----------
# TEST PROTOCOL: Protein binding in rat brain
# Type: ADME, tissue-based
# CONDITION NOTES: read-out: PB
QUANTITY: fraction unbound
Give the value as a plain number.

Per the records, this compound ( FC(F)(F)c1c(OC[C@H]2C[C@@H]2c2ccc(Cl)cc2)ccn2c(CC3CC3)nnc12 ) has fraction unbound equal to 0.001

These data points were gathered from ChEMBL document CHEMBL3875193.
